Where these numbers come from: ChEMBL document CHEMBL3526053

- TEST TARGET: PEPT1 (Homo sapiens, UniProt P46059)
- PROTOCOL DETAILS: Drug uptake in Pichia pastoris GS115 expressing human recombinant PEPT1 at 5 uM after 30s by dual-channel liquid scintillation counting analysis relative to vector control
- Format: ADME
- CONDITION CONTEXT: read-out: FC
ENDPOINT: uptake ratio at 0.5 min, 5 µM
Respond using a number only.

Req: So what uptake ratio at 0.5 min, 5 µM did [3H]C(C(=O)O)N(C)C(=O)CN (stereo unspecified) get with PEPT1 (Homo sapiens, UniProt P46059)?
Resp: 23

---

- TEST TARGET: Solute carrier family 15 member 1 (Oryctolagus cuniculus)
- Sequence (P36836 whole entry): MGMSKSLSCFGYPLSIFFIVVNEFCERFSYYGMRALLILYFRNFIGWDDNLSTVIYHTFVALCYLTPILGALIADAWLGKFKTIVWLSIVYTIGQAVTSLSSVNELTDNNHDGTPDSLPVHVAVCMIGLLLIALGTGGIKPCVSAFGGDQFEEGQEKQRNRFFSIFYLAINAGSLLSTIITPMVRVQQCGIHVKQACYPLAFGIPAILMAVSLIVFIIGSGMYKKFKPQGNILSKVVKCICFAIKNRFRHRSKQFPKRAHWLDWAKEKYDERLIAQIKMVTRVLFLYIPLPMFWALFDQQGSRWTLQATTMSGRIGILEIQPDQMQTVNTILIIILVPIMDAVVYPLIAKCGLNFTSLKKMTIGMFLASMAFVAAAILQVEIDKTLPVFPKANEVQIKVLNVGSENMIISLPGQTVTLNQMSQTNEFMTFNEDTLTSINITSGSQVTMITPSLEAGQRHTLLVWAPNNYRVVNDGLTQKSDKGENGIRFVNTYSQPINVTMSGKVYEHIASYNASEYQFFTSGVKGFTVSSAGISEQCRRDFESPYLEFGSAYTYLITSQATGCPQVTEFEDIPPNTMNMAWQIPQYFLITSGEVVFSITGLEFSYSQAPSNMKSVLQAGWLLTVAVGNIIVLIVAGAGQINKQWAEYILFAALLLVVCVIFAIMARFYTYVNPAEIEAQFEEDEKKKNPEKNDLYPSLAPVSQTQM
- PROTOCOL DETAILS: Drug uptake in Xenopus laevis oocytes expressing rabbit PEPT1 measured at pH 5.5 and -60 mV by two-electrode voltage-clamp electrophysiology
- Format: ADME, cell-based
Non-standard residues stand in square brackets, D forms with d. Residues, ends and D or L forms follow the SMILES beside them. Sar = CNCC(=O)O
ENDPOINT: Km (µM)
The answer is to be given in µM; state only the numeric part.

Req: So what Km did CN(CC(=O)O)C(=O)CN [GLYCYLSARCOSINE] (H-Gly-[Sar]-OH) get with Solute carrier family 15 member 1 (Oryctolagus cuniculus)?
Resp: 1900

---

- TEST TARGET: Solute carrier family 15 member 1 (Homo sapiens, UniProt P46059)
- Sequence (P46059 whole entry): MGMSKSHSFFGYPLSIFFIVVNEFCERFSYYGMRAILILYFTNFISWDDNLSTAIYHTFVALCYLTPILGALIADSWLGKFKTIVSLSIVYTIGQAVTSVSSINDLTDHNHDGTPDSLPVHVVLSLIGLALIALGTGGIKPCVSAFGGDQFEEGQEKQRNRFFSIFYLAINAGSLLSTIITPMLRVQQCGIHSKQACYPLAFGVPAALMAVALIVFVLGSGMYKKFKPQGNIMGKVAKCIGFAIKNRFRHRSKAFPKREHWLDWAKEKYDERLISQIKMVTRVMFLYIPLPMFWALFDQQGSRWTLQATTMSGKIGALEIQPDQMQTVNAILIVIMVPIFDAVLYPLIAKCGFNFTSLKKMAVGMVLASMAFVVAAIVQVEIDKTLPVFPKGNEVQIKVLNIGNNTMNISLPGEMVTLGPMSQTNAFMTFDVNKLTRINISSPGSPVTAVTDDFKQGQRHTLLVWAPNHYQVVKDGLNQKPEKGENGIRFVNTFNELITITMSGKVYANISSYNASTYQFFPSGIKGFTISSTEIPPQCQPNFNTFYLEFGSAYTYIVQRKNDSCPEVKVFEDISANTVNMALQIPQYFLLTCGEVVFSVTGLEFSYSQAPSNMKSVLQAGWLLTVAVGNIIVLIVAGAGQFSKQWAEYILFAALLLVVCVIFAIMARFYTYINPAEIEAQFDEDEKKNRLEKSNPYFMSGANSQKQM
- PROTOCOL DETAILS: Inhibition of human recombinant PEPT1 expressed in Pichia pastoris GS115 assessed as [3H]GlySar uptake after 30s by dual-channel liquid scintillation counting analysis
ENDPOINT: IC50
Write down the value, and be sure its unit follows.

Req: Which IC50 is listed for CCOC(=O)C1=C[C@@H](OC(CC)CC)[C@H](NC(C)=O)[C@@H](N)C1.O=P(O)(O)O [OSELTAMIVIR PHOSPHATE] ?
Resp: 27.4 mM
